- Test System: Sphingosine kinase 2 (Homo sapiens) (UniProt Q9NRA0);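 also: values reported as mean percent inhibition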
- Sequence (Q9NRA0 whole entry): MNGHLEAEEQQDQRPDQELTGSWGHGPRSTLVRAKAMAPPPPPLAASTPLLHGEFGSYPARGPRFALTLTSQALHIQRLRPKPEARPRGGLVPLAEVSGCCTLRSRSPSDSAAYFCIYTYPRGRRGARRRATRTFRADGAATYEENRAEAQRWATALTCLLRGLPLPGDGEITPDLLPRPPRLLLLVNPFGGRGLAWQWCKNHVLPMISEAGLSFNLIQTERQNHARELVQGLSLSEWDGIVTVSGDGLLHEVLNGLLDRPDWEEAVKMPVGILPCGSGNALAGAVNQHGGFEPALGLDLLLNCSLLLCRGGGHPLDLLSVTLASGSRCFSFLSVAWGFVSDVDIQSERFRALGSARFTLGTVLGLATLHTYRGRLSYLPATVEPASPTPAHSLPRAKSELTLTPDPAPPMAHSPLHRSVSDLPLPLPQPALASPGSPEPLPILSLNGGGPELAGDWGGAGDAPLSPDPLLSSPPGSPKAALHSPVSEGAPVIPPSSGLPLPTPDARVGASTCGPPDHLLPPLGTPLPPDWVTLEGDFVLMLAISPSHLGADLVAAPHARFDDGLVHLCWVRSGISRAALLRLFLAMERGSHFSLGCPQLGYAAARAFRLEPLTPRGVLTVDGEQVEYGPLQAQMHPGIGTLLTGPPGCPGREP
- Experimental Context: at 0.1 µM
Endpoint: inhibition (%)
The response must be a number in % with no trailing unit.

Example entries begin here.
CN(C)C(=O)O[C@@H]1CN[C@@H](C#Cc2cc3ncnc(Nc4ccc(OCc5cccc(F)c5)c(Cl)c4)c3s2)C1 : 0
NS(=O)(=O)c1ccc(N/N=C2\C(=O)Nc3ccc(Cl)cc32)cc1 : 0
COc1ccc(-c2nn3ncccc3c2-c2ccnc(Nc3cccc(C(F)(F)F)c3)n2)cc1 : -1.04
NS(=O)(=O)c1ccc(-c2cc3ccncc3cc2OCc2ccccc2)cc1 : -0.23

Suppose we examine the compound Nc1nccc(-c2c(-c3ccc(F)cc3)ncn2CCCN2CCOCC2)n1 ; what inhibition value has been reported?
-0.3

Quick one: c1ccc(Nc2ncc(-c3ccccc3)o2)cc1
0.84

Quick one: CCS(=O)(=O)c1ccc(OC)c(Nc2nccc(N(C)c3ccc4c(C)n[nH]c4c3)n2)c1
-0.07

Quick one: O=S(=O)(CCOCc1ccc(-c2ccc3ncnc(Nc4ccc(OCc5cccc(F)c5)c(Cl)c4)c3c2)o1)c1ccccc1
0.14

Quick one: Cc1ccc(NC(=O)CC2CC2)cc1-c1ccc(C(=O)NCC2CC2)cc1
0.51

Quick one: COC(=O)c1ccc2c(c1)C(=Cc1cc(Br)c(O)c(Br)c1)C(=O)N2
-0.52

* * *

- Test System: Phosphatidylinositol 4,5-bisphosphate 3-kinase catalytic subunit delta isoform (Homo sapiens);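 also: values are mean percent inhibition of PI3K-delta, part of the GSK PKIS screen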
- Experimental Context: at 0.1 µM
Endpoint: inhibition (%)
The response must be a number in % with no trailing unit.

Example entries begin here.
Nc1nccc(-c2c(-c3ccc(F)cc3)ncn2CCCN2CCOCC2)n1 : 0.42
COc1ccc(-c2nn3ncccc3c2-c2ccnc(Nc3cccc(C(F)(F)F)c3)n2)cc1 : -0.05
C[C@@H](Oc1cc(-n2cnc3ccc(OC[C@@H](O)CO)cc32)sc1C(N)=O)c1ccccc1Cl : 1.99
CCn1c(-c2nonc2N)nc2c(C#CC(C)(C)O)nc(OCCNC)cc21 : 1.6
NC(=O)c1cccc(Nc2nccc(Nc3cccc(F)c3)n2)c1 : -1.45
[O-][S+]1CCN(Cc2ccc(-c3ccc4ncnc(Nc5ccc(OCc6ccccc6)c(Cl)c5)c4c3)o2)CC1 : 0.92
Cc1cc(Cl)cc2c1NC(=O)C2=NNc1ccc(S(N)(=O)=O)cc1 : 0.72
CCS(=O)(=O)c1ccc(OC)c(Nc2ncc(-c3cccc(OC)c3)o2)c1 : 3.48
Oc1cccc(-c2nc(-c3ccccc3)[nH]c2-c2ccncc2)c1 : 2.01
Cc1ccc2c(-c3ccnc(Nc4cccc(C(F)(F)F)c4)n3)c(-c3ccccc3)nn2n1 : 0.26

Suppose we examine the compound COc1ccc2ncnc(Nc3ccc(OCc4ccccc4)cc3)c2c1 ; what inhibition value has been reported?
1.99

Quick one: CN(C)CCCn1c(-c2nonc2N)nc2cnccc21
1.95

Quick one: c1ccc(Cc2nc3ccc(Nc4ncnc5ccccc45)cc3[nH]2)cc1
1.66

* * *

- Test System: Testis-specific serine/threonine-protein kinase 2 (Homo sapiens) (UniProt Q96PF2);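 also: each value is the mean percent inhibition of TSSK2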
- Sequence (Q96PF2 whole entry): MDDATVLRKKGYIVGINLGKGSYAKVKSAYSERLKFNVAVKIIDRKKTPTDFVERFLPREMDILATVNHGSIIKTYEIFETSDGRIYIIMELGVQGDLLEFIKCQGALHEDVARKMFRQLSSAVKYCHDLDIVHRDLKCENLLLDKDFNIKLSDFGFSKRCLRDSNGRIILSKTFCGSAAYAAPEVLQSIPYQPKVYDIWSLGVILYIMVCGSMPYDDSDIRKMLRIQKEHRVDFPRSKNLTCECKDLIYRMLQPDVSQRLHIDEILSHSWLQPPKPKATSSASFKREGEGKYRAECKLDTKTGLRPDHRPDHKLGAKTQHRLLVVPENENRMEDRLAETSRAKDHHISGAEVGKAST
- Experimental Context: at 1 µM
# inhibition annotations
The response must be a number in % with no trailing unit.

Example entries begin here.
NS(=O)(=O)c1ccc(N/N=C2\C(=O)Nc3ccc(Cl)cc32)cc1 : 2.98
Cc1ccc(C(=O)NC2CC2)cc1-c1ccc2[nH]ncc2c1 : -1.65

Suppose we examine the compound COC(=O)c1ccc2c(c1)C(=Cc1cc(Br)c(O)c(Br)c1)C(=O)N2 ; what inhibition value has been reported?
1.17

* * *

- Test System: Serine/threonine-protein kinase MRCK alpha (Homo sapiens) (UniProt Q5VT25);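 also: each inhibition figure is a mean value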
- Sequence (Q5VT25 whole entry): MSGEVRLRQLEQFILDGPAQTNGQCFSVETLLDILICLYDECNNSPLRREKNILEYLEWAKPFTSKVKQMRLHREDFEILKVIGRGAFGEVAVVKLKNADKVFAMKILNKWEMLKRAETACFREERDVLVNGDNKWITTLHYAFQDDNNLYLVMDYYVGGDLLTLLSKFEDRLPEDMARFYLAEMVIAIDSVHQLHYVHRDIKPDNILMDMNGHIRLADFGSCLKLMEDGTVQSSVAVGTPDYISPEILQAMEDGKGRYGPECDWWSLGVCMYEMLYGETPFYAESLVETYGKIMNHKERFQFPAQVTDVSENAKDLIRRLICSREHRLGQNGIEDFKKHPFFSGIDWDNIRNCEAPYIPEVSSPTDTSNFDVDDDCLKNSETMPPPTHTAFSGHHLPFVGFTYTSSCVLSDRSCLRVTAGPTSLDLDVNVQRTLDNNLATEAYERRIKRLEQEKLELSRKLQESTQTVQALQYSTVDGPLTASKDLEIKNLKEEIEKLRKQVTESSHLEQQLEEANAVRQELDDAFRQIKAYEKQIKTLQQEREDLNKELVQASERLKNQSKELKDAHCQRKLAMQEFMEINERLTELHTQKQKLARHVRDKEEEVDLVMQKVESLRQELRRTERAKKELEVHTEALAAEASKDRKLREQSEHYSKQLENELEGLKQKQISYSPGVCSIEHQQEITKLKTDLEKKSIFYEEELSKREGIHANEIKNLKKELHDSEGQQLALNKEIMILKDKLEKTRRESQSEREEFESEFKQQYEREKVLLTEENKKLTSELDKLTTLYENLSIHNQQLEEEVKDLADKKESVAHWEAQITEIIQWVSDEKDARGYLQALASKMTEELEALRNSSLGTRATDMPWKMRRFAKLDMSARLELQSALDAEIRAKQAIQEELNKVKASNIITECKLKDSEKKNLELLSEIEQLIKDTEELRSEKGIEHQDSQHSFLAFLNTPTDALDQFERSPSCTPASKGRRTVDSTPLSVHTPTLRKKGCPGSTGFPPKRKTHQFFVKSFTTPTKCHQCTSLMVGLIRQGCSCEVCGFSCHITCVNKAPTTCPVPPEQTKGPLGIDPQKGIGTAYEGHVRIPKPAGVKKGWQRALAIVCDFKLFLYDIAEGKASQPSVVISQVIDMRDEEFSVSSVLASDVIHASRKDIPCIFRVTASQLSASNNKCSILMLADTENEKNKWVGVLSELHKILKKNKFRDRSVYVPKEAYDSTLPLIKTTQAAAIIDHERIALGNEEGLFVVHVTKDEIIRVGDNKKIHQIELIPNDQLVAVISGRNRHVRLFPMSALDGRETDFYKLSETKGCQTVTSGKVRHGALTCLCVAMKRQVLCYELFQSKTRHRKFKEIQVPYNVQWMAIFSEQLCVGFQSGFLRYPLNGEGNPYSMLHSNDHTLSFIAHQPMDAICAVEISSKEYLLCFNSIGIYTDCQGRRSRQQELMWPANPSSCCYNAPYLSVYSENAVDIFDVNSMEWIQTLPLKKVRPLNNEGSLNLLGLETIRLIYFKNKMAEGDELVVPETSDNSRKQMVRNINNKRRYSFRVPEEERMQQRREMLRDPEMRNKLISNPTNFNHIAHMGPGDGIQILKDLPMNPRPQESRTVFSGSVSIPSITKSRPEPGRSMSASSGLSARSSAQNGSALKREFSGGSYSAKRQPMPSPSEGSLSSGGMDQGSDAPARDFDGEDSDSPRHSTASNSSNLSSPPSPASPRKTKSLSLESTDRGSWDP
- Experimental Context: at 0.1 µM
# inhibition annotations
The response must be a number in % with no trailing unit.

Cc1nc(-c2ccccc2)n2nc(NCCCN3CCOCC3)ncc12 : 6.14

Suppose we examine the compound Cc1ccc(O)cc1Nc1ccnc2ccc(S(C)(=O)=O)cc12 ; what inhibition value has been reported?
-0.59

Quick one: COc1cccc(-n2nc(C)c3c(N/N=C(\C)c4ccncc4)ncnc32)c1
1.87

Quick one: O=C1Nc2ccc(-c3cccnc3)cc2C1=Cc1cc(Br)c(O)c(Br)c1
0.24

* * *

- Test System: Fibroblast growth factor receptor 2 (Homo sapiens) (UniProt P21802);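 also: reported figure is a mean percent inhibition of FGFR2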
- Experimental Context: at 1 µM
Endpoint: inhibition (%)
The response must be a number in % with no trailing unit.

CCn1c(-c2nonc2N)nc2c(C#CC(C)(C)O)nc(OCCNC)cc21 : 6.92
CN(C)CCCn1c(-c2nonc2N)nc2cnccc21 : 6.36
COc1cc(Nc2nccc(-c3cnn4ncccc34)n2)cc(OC)c1 : 23
Cc1cc(-c2ccccn2)cc(C)c1/C=C/c1cncc(-c2nn[nH]n2)c1 : 7.33
COc1cccc(-n2ncc3c(N/N=C/c4ccc(C)cc4)ncnc32)c1 : 7.12
COc1cc2ncnc(Nc3ccc4c(cnn4Cc4ccccc4)c3)c2cc1OC : 7.69
COc1cccc(-n2ncc3c(N/N=C/c4ccc(S(C)(=O)=O)cc4)ncnc32)c1 : 4.85
COc1cccc(-n2nc(C)c3c(N/N=C(\C)c4ccncc4)ncnc32)c1 : -0.1
Nc1nccc(-c2c(-c3ccc(F)cc3)nn3cc(C(F)(F)F)ccc23)n1 : 2.87
CCCN1CCCC(c2ccc(Nc3nc(Nc4cc(F)ccc4C(N)=O)c4cc[nH]c4n3)c(OC)c2)C1 (stereo unspecified) : 5.74

# context switch: different compound, same inhibition
Suppose we examine the compound c1ccc(Nc2ncc(-c3ccccc3)o2)cc1 ; what inhibition value has been reported?
10.5

* * *

- Test System: Tyrosine-protein kinase FRK (Homo sapiens) (UniProt P42685);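 also: reported percent inhibition is a mean value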
- Sequence (P42685 whole entry): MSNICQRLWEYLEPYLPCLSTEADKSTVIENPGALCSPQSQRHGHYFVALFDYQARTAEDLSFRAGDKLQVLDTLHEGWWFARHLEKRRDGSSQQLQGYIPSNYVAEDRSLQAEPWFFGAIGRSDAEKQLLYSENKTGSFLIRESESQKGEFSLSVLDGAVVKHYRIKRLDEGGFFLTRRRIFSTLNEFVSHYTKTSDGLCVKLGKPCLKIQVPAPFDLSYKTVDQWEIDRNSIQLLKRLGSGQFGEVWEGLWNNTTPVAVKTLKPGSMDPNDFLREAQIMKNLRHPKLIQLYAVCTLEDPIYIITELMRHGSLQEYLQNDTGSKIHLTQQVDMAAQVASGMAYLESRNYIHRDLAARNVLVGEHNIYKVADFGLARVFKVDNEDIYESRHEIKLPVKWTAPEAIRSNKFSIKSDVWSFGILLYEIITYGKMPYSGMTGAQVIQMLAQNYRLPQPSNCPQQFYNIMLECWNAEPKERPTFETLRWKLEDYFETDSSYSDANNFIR
- Experimental Context: at 1 µM
# inhibition annotations
The response must be a number in % with no trailing unit.

Example entries begin here.
CCCN1CCCC(c2ccc(Nc3nc(Nc4cc(F)ccc4C(N)=O)c4cc[nH]c4n3)c(OC)c2)C1 (stereo not given) : 20.5
NS(=O)(=O)c1ccc(NC=C2C(=O)Nc3ccc4ncsc4c32)cc1 : 4.47
Oc1cccc(-c2nc(-c3ccccc3)[nH]c2-c2ccncc2)c1 : 16.5
CN1CCN(C(=O)c2ccc(NC(=O)Nc3ccc(N(C)c4ccnc(Nc5ccc(CS(C)(=O)=O)cc5)n4)cc3)cc2)CC1 : 4.04

# context switch: different compound, same inhibition
Suppose we examine the compound CCS(=O)(=O)c1ccc(OC)c(Nc2nccc(N(C)c3ccc4c(C)n[nH]c4c3)n2)c1 ; what inhibition value has been reported?
70.2

* * *

- Test System: Hepatocyte growth factor receptor (Homo sapiens)
- Experimental Context: at 1 µM
Endpoint: inhibition (%)
The response must be a number in % with no trailing unit.

// lookup inhibition | system=Hepatocyte growth factor receptor (Homo sapiens) | key= Nc1nccc(-c2c(-c3ccc(F)cc3)ncn2CCCN2CCOCC2)n1;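 also: each value is an averaged inhibition figure for MET, taken as the mean across measurements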
5.4

Quick one: Cc1ccc(C(=O)NC2CC2)cc1-c1ccc2[nH]ncc2c1
-1.74

Quick one: Cc1ccc2c(-c3ccnc(Nc4cccc(C(F)(F)F)c4)n3)c(-c3ccccc3)nn2n1
10.4

Quick one: c1ccc(Cc2nc3ccc(Nc4ncnc5ccccc45)cc3[nH]2)cc1
7.9

Quick one: Cc1cc(Cl)cc2c1NC(=O)C2=NNc1ccc(S(N)(=O)=O)cc1
5.08

Quick one: NS(=O)(=O)c1ccc(NC=C2C(=O)Nc3ccc4ncsc4c32)cc1
62.2

Quick one: [O-][S+]1CCN(Cc2ccc(-c3ccc4ncnc(Nc5ccc(OCc6ccccc6)c(Cl)c5)c4c3)o2)CC1
5.04

* * *

# inhibition annotations
- Test System: Tyrosine-protein kinase JAK3 (Homo sapiens) (UniProt P52333)
- Sequence (P52333 whole entry): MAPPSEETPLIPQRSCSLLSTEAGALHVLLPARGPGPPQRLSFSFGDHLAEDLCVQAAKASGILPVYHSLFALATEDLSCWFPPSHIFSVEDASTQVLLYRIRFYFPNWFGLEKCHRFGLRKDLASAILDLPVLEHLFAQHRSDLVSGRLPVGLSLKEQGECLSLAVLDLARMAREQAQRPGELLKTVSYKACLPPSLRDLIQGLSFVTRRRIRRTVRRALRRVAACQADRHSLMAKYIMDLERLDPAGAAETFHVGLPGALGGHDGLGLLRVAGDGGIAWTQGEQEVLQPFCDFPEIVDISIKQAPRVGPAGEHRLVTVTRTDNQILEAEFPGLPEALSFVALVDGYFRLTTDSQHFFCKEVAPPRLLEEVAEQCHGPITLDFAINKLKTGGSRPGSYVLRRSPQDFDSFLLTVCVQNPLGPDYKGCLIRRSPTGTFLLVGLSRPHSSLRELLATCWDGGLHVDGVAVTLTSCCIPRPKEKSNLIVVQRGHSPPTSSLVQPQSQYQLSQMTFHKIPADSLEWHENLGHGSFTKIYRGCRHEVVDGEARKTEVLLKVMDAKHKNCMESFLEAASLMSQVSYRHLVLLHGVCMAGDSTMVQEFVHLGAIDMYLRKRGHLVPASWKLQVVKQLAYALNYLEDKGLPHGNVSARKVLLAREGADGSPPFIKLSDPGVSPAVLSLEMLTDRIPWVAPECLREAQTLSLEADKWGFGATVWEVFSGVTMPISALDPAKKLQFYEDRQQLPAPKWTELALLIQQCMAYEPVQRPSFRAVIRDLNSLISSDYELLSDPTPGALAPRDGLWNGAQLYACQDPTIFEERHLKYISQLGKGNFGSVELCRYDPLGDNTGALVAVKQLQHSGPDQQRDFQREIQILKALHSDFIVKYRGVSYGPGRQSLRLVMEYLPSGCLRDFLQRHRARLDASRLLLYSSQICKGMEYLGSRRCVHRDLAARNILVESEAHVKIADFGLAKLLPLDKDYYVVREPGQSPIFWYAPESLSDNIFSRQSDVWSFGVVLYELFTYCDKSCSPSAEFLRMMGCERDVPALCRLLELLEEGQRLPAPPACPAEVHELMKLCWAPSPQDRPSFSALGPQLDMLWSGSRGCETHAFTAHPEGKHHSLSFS
- Experimental Context: at 1 µM
- Description: GSK_PKIS: JAK3 mean inhibition at 1 uM [Nanosyn]
The response must be a number in % with no trailing unit.

Suppose we examine the molecule Nc1nccc(-c2c(-c3ccc(F)cc3)ncn2CCCN2CCOCC2)n1 ; what inhibition value has been reported?
-0.57

Quick one: CCS(=O)(=O)c1ccc(OC)c(Nc2ncc(-c3cccc(OC)c3)o2)c1
5.85

Quick one: CN(C)C(=O)O[C@H]1CN[C@H](C#Cc2cc3ncnc(Nc4ccc(OCc5cccc(F)c5)c(Cl)c4)c3s2)C1
1.63

Quick one: CC(C)c1ccc2c(c1)NC(=O)/C2=N/Nc1ccc(S(N)(=O)=O)cc1
1.08

Quick one: COc1cc(Nc2nccc(-c3cnn4ncccc34)n2)cc(OC)c1
60.5

Quick one: O=C(Nc1ccc(Oc2ccc3[nH]c(NC(=O)c4ccco4)nc3c2)cc1)Nc1cc(C(F)(F)F)ccc1F
-2.59

Quick one: CN1CCN(C(=O)c2ccc(NC(=O)Nc3ccc(N(C)c4ccnc(Nc5ccc(CS(C)(=O)=O)cc5)n4)cc3)cc2)CC1
26.2

Quick one: [O-][S+]1CCN(Cc2ccc(-c3ccc4ncnc(Nc5ccc(OCc6ccccc6)c(Cl)c5)c4c3)o2)CC1
-0.24

Quick one: COc1cccc(-n2ncc3c(N/N=C/c4ccc(C)cc4)ncnc32)c1
1.11

Quick one: COc1ccc2ncnc(Nc3ccc(OCc4ccccc4)cc3)c2c1
0.67

Quick one: Cc1ccc(NC(=O)CC2CC2)cc1-c1ccc(C(=O)NCC2CC2)cc1
2.17

Quick one: COc1cc2ncnc(Nc3ccc(C)c(O)c3)c2cc1OC
2.14

Quick one: NS(=O)(=O)c1ccc(N/N=C2\C(=O)Nc3ccc(Cl)cc32)cc1
1.21

Quick one: CCn1c(-c2nonc2N)nc2ccc(F)cc21
-1.23

Quick one: NS(=O)(=O)c1ccc(NC=C2C(=O)Nc3ccc4ncsc4c32)cc1
63.7

Quick one: FC(F)(F)c1ccc(-c2nn3ncccc3c2-c2ccnc(Nc3ccc4c(c3)OCCO4)n2)cc1
4.36
